Data origin, for the record: ChEMBL document CHEMBL4699592

Test system: MRC5
METHOD NOTES: Cytotoxicity against human MRC5 cells assessed as reduction in cell viability at >=12.5 uM measured after 48 hrs by resazurin dye based fluorescence assay
EXPERIMENTAL CONTEXT: mrc5, 48 h
METRIC NAME: Activity

Here is how some compounds turned out for Activity.
- LINE NOTATION: "Brc1ccc2[nH]cc(-c3cnc(-c4c[nH]c5ccc(Br)cc45)cn3)c2c1"
  TEST SYSTEM: "MRC5"
  METRIC NAME: "Activity"
  REPORTED MEASUREMENT: "Toxic"
- LINE NOTATION: "Clc1ccc2[nH]cc(-c3cnc(-c4c[nH]c5ccc(Cl)cc45)cn3)c2c1"
  TEST SYSTEM: "MRC5"
  METRIC NAME: "Activity"
  REPORTED MEASUREMENT: "Toxic"
- LINE NOTATION: "Clc1ccc2[nH]cc(-c3ccc(-c4c[nH]c5ccc(Cl)cc45)nn3)c2c1"
  TEST SYSTEM: "MRC5"
  METRIC NAME: "Activity"
  REPORTED MEASUREMENT: "Toxic"
- LINE NOTATION: "Clc1ccc2[nH]cc(-c3ccnc(-c4c[nH]c5ccc(Cl)cc45)n3)c2c1"
  TEST SYSTEM: "MRC5"
  METRIC NAME: "Activity"
  REPORTED MEASUREMENT: "Toxic"
- LINE NOTATION: "Clc1ccc2[nH]cc(-c3cnc(-c4c[nH]c5ccc(Cl)cc45)nc3)c2c1"
  TEST SYSTEM: "MRC5"
  METRIC NAME: "Activity"
  REPORTED MEASUREMENT: "Toxic"

(Q) Record request: Activity value, item Clc1ccc2[nH]cc(-c3cccc(-c4c[nH]c5ccc(Cl)cc45)n3)c2c1
(A) Toxic

====

System: Staphylococcus aureus
METHOD NOTES: Antibacterial activity against […] Staphylococcus aureus ATCC 700699 after 24 hrs by broth microdilution method
Format: functional
METRIC NAME: MIC90 (µM)
Answers are plain numbers, in µM.

- LINE NOTATION: "Clc1ccc2[nH]cc(-c3cncc(-c4c[nH]c5ccc(Cl)cc45)n3)c2c1"
  SCALE UNIT: "µM"
  REPORTED MEASUREMENT: 0.39
- LINE NOTATION: "Brc1ccc2[nH]cc(-c3cnc(-c4c[nH]c5ccc(Br)cc45)cn3)c2c1"
  SCALE UNIT: "µM"
  REPORTED MEASUREMENT: 1.56
- LINE NOTATION: "Clc1ccc2[nH]cc(-c3cnc(-c4c[nH]c5ccc(Cl)cc45)cn3)c2c1"
  SCALE UNIT: "µM"
  REPORTED MEASUREMENT: 0.39
- LINE NOTATION: "Brc1cc2[nH]cc(-c3cnc(-c4c[nH]c5cc(Br)c(Br)cc45)cn3)c2cc1Br"
  SCALE UNIT: "µM"
  REPORTED MEASUREMENT: 1.56
- LINE NOTATION: "Clc1ccc2[nH]cc(-c3cnc(-c4c[nH]c5ccc(Cl)cc45)nc3)c2c1"
  SCALE UNIT: "µM"
  REPORTED MEASUREMENT: 0.39
- LINE NOTATION: "Clc1ccc2[nH]cc(-c3cccc(-c4c[nH]c5ccc(Cl)cc45)n3)c2c1"
  SCALE UNIT: "µM"
  REPORTED MEASUREMENT: 0.2

Look at each compound and report its MIC90.
1. Clc1ccc2[nH]cc(-c3ccnc(-c4c[nH]c5ccc(Cl)cc45)n3)c2c1
2. Clc1ccc2[nH]cc(-c3ccc(-c4c[nH]c5ccc(Cl)cc45)nn3)c2c1
3. c1ccc2c(-c3cnc(-c4c[nH]c5ccccc45)nc3)c[nH]c2c1
4. Fc1ccc2[nH]cc(-c3cnc(-c4c[nH]c5ccc(F)cc45)nc3)c2c1
5. COc1ccc2[nH]cc(-c3cccc(-c4c[nH]c5ccc(OC)cc45)n3)c2c1
6. COc1ccc2[nH]cc(-c3cnc(-c4c[nH]c5ccc(OC)cc45)nc3)c2c1

(A)
1. 3.13
2. 0.78
3. 12.5
4. 12.5
5. 12.5
6. 50

====

Tested on: Enterococcus faecalis
METHOD NOTES: Antibacterial activity against Enterococcus faecalis ATCC 29212 at 0.78 to 100 uM after 24 hrs by broth microdilution method
Format: functional, organism-based
EXPERIMENTAL CONTEXT: dose microM 0.78-100, time 24.0 hrs
The source made the active and inactive calls. The calls are words filed in the database; no cut-off is given here.
Can you answer with just one of these options? active, inactive

Take a look at these entries with their results.
- COMPOUND: "Clc1ccc2[nH]cc(-c3ccnc(-c4c[nH]c5ccc(Cl)cc45)n3)c2c1"
  CLASS NAME: "active"
- COMPOUND: "Clc1ccc2[nH]cc(-c3cnc(-c4c[nH]c5ccc(Cl)cc45)nc3)c2c1"
  CLASS NAME: "active"
- COMPOUND: "Oc1ccc2[nH]cc(-c3cnc(-c4c[nH]c5ccc(O)cc45)cn3)c2c1"
  CLASS NAME: "inactive"

(Q) # fetch the recorded call for COc1ccc2[nH]cc(-c3cnc(-c4c[nH]c5ccc(OC)cc45)cn3)c2c1 here
(A) inactive

(Q) Short answer needed: outcome of this test for Oc1ccc2[nH]cc(-c3cnc(-c4c[nH]c5ccc(O)cc45)nc3)c2c1 [HYRTINADINE A] ?
(A) inactive

(Q) Hey, what did the test say about Clc1ccc2[nH]cc(-c3cccc(-c4c[nH]c5ccc(Cl)cc45)n3)c2c1 ?
(A) active

(Q) Status in this test for COc1ccc2[nH]cc(-c3cnc(-c4c[nH]c5ccc(OC)cc45)nc3)c2c1 ?
(A) inactive

====

Test system: Mycobacterium tuberculosis
METHOD NOTES: Antibacterial activity against Mycobacterium tuberculosis H37Rv at 0.78 to 100 uM after 5 days by resazurin dye based fluorescence assay
Assay type: functional, organism-based
EXPERIMENTAL CONTEXT: dose microM 0.78-100, time 5.0 day
Active and inactive are the calls of the source. The rule behind the calls is not given here.
Could you please pick one outcome from this set? active, inactive

Example results:
- LINE NOTATION: "c1cc(-c2c[nH]c3ccccc23)nc(-c2c[nH]c3ccccc23)c1"
  CLASS NAME: "inactive"
- LINE NOTATION: "Clc1ccc2[nH]cc(-c3cccc(-c4c[nH]c5ccc(Cl)cc45)n3)c2c1"
  CLASS NAME: "active"
- LINE NOTATION: "Clc1ccc2[nH]cc(-c3cnc(-c4c[nH]c5ccc(Cl)cc45)nc3)c2c1"
  CLASS NAME: "active"
- LINE NOTATION: "Clc1ccc2[nH]cc(-c3cncc(-c4c[nH]c5ccc(Cl)cc45)n3)c2c1"
  CLASS NAME: "inactive"

As a next step, examine the compound that follows.
(Q) Entry COc1ccc2[nH]cc(-c3cccc(-c4c[nH]c5ccc(OC)cc45)n3)c2c1 : call = ?
(A) inactive

====

Please respond with reported selectivity ratio for every item in the list.
METHOD NOTES: Selectivity index, ratio of IC50 for cytotoxicity against human THP-1 cells to MIC90 for antibacterial activity against […] Staphylococcus aureus ATCC 700699
Assay type: toxicity, cell-based
EXPERIMENTAL CONTEXT: read-out: Selectivity Index
Give bare numbers.

Examples with their reported selectivity ratio follow.
- LINE NOTATION: "Brc1ccc2[nH]cc(-c3cnc(-c4c[nH]c5ccc(Br)cc45)cn3)c2c1"
  REPORTED MEASUREMENT: 8
- LINE NOTATION: "Clc1ccc2[nH]cc(-c3ccc(-c4c[nH]c5ccc(Cl)cc45)nn3)c2c1"
  REPORTED MEASUREMENT: 8

Now look at this one.
(Q) // query selectivity ratio value for entry Clc1ccc2[nH]cc(-c3cnc(-c4c[nH]c5ccc(Cl)cc45)cn3)c2c1
(A) 32
